Origin of measurements: paper PMC9609429

# Tested on: normotensive rats
# Assay Details: Effect on a normal electrocardiogram in rats
# Format: in vivo
# Experimental Context: rat, 20 mg/kg ip, 30 min
# Protocol: To verify the influence of the tested compound on the normal electrocardiogram (ECG), the experiment was performed. Aspel ASCARD apparatus (standard II lead, with tape speed 50 mm/s and voltage calibration 1 mV = 1 cm) was used for ECG measurements. […] The ECG was recorded prior and 5, 10, 15, 20, 30, 40, 50, 60, and 80 min after intraperitoneal administration of the tested compound. The influence on PQ, QTc interval, QRS complex, and heart rate was evaluated. […]
Measurement Type: QTc (ms)
Just the number please, in ms, no unit attached.

Lab note: CCC(CN1CCN(c2ccccc2OC)CC1)NCCCOc1c(C)cccc1C.Cl.Cl (stereo not shown) gave QTc of 178
